The following compounds have recorded IC50 on F1F0-ATPase (Bos taurus, UniProt P13621).

QUERY: What IC50 appears in the records for this compound with F1F0-ATPase (Bos taurus, UniProt P13621)? Cn1cc(C(=O)/N=C(/Nc2ccc(C(C)(C)C)cc2)Nc2cc(-c3ccc(O)cc3F)n[nH]2)c(C(F)(F)F)n1 [Compound A-151]
RESULT: < 5 µM

QUERY: What IC50 appears in the records for this compound with F1F0-ATPase (Bos taurus, UniProt P13621)? CCOC(=O)NC1CCC(N/C(=N\C(=O)c2cc(C)oc2C(F)(F)F)Nc2ccccc2OC)CC1 (stereo not drawn) [Compound A-213]
RESULT: < 5 µM

QUERY: What IC50 appears in the records for this compound with F1F0-ATPase (Bos taurus, UniProt P13621)? COC[C@H](C)N/C(=N/C(=O)c1cn(C)nc1C(F)(F)F)Nc1cc(-c2ccc(OC)c(F)c2)n[nH]1 [Compound A-132]
RESULT: 5 to 16 µM

QUERY: What IC50 appears in the records for this compound with F1F0-ATPase (Bos taurus, UniProt P13621)? Cc1oncc1C(=O)/N=C(\Nc1cc(-c2cc(F)cc(F)c2)n[nH]1)NC(C)(C)C [Compound A-87]
RESULT: < 5 µM

QUERY: What IC50 appears in the records for this compound with F1F0-ATPase (Bos taurus, UniProt P13621)? CCOCCN/C(=N\C(=O)c1cn(C)nc1C(F)(F)F)Nc1cc(-c2cc(F)cc(F)c2)n[nH]1 [Compound A-30]
RESULT: < 5 µM

QUERY: What IC50 appears in the records for this compound with F1F0-ATPase (Bos taurus, UniProt P13621)? Cc1cc(N/C(=N\C(=O)c2cc(C)oc2C(F)(F)F)NCC(C)C)[nH]n1 [Compound A-109]
RESULT: 5 to 16 µM

QUERY: What IC50 appears in the records for this compound with F1F0-ATPase (Bos taurus, UniProt P13621)? Cn1nc(C(C)(C)C)cc1C(=O)/N=C(\Nc1cc(-c2ccc(Cl)cc2)n[nH]1)NC1CCCC1 [Compound A-74]
RESULT: < 5 µM

QUERY: What IC50 appears in the records for this compound with F1F0-ATPase (Bos taurus, UniProt P13621)? CC(C)c1ccc(N/C(=N/C(=O)c2cn(C)nc2C(F)(F)F)Nc2cc(-c3ccc(O)c(F)c3)n[nH]2)cc1 [Compound A-175]
RESULT: 5 to 16 µM

QUERY: What IC50 appears in the records for this compound with F1F0-ATPase (Bos taurus, UniProt P13621)? CCOCCCNC(=NC(=O)c1cc(C)oc1C(F)(F)F)Nc1cc(-c2ccc(F)cc2)n[nH]1 [Compound A-199]
RESULT: < 5 µM

---

pIC50: −log10 of the molar value.
measured_attribute: pIC50

QUERY: What pIC50 appears in the records for this molecule with F1F0-ATPase (Bos taurus, UniProt P13621)? CCC(C)N/C(=N/C(=O)c1cc(C)oc1C(F)(F)F)Nc1cc(C)n[nH]1 (stereo not shown) [Compound A-111]
RESULT: 4.80 to 5.30

QUERY: What pIC50 appears in the records for this molecule with F1F0-ATPase (Bos taurus, UniProt P13621)? COc1ccc(-c2cc(N/C(=N\C(=O)c3cn(C)nc3C(F)(F)F)NCC(C)C)n[nH]2)cc1F [Compound A-133]
RESULT: > 5.30

QUERY: What pIC50 appears in the records for this molecule with F1F0-ATPase (Bos taurus, UniProt P13621)? Cc1oncc1C(=O)/N=C(/NCC(C)C)Nc1cc(-c2ccc(Cl)cc2)n[nH]1 [Compound A-69]
RESULT: < 4.80

QUERY: What pIC50 appears in the records for this molecule with F1F0-ATPase (Bos taurus, UniProt P13621)? CC(C)(C)N/C(=N/C(=O)c1ccno1)Nc1cc(-c2ccc(F)cc2)n[nH]1 [Compound A-38]
RESULT: 4.80 to 5.30
